Data origin: paper PMC5936891

# Test system: A2780 (ovarian carcinoma)
# METHOD NOTES: MTT in vitro growth inhibition assay, A2780
# Format: cell-based
# ASSAY CONTEXT: Homo sapiens, 25 µM of drug, 72 h, read-out: Percentage of Cell Growth Inhibition A2780

# SMILES STRING, QUALIFYING SIGN, inhibition at 25 µM [%]
data = [
    ("COC1=CC(=O)C(OC)=C(c2cccc(C)c2)C1=O", "=", 59),
    ("COC1=CC(=O)C(OC)=C(c2cccc3ccccc23)C1=O", "=", 66),
    ("CCCNC1=CC(=O)C(NCCC)=C(c2ccc(C)cc2)C1=O", "=", 63),
    ("COC1=C(c2cccc(-c3ccccc3)c2)C(=O)C(OC)=C(c2ccc3ccccc3c2)C1=O", "=", 76),
    ("COC1=CC(=O)C(OC)=C(c2ccc(OC)c(OC)c2)C1=O", ">", 100),
    ("COC1=CC(=O)C(OC)=C(c2ccc(OC)cc2OC)C1=O", "=", 48),
    ("CCCNC1=CC(=O)C(NCCC)=C(c2cccc3ccccc23)C1=O", "=", 78),
    ("COC1=C(c2ccc3ccccc3c2)C(=O)C(OC)=C(c2cccc3ccccc23)C1=O", "=", 98),
    ("COC1=CC(=O)C(OC)=C(c2ccc(C)cc2)C1=O", "=", 72),
    ("COC1=CC(=O)C(OC)=C(c2cccc(-c3ccccc3)c2)C1=O", "=", 52),
    ("CCCNC1=C(c2ccccc2)C(=O)C(NCCC)=C(c2cccc3ccccc23)C1=O", "=", 79),
    ("COC1=CC(=O)C(OC)=C(c2ccc(O)cc2)C1=O", "<", 10),
    ("CCCNC1=C(c2ccc3ccccc3c2)C(=O)C(NCCC)=C(c2cccc3ccccc23)C1=O", "=", 94),
    ("COC1=CC(=O)C(OC)=C(c2cc3ccccc3s2)C1=O", "=", 61),
    ("COC1=CC(=O)C(OC)=C(c2ccc3ccccc3c2)C1=O", "=", 54),
    ("COC1=C(c2ccccc2)C(=O)C(OC)=C(c2cccc3ccccc23)C1=O", "=", 60),
    ("CCCCc1ccc(C2=C(OC)C(=O)C(c3ccc(CCCC)cc3)=C(OC)C2=O)cc1", "=", 55),
    ("COC1=CC(=O)C(OC)=C(c2cccc(OC)c2)C1=O", "=", 60),
    ("COC1=CC(=O)C(OC)=C(c2cccc(OC)c2OC)C1=O", "=", 44),
]

###

# Tested on: MIA (pancreatic carcinoma)
# METHOD NOTES: MTT in vitro growth inhibition assay, MIA
# Type: cell-based
# ASSAY CONTEXT: 25 µM of drug, 72 h, read-out: Percentage of Cell Growth Inhibition MIA
Listed molecules paired with reported inhibition at 25 µM

# SMILES STRING, QUALIFYING SIGN, inhibition at 25 µM / %
records = [
    ("COC1=CC(=O)C(OC)=C(c2ccc(O)cc2)C1=O", "<", 10),
    ("COC1=C(c2ccc3ccccc3c2)C(=O)C(OC)=C(c2ccc(OC)cc2OC)C1=O", "=", 70),
    ("COC1=CC(=O)C(OC)=C(c2cccc(OC)c2)C1=O", "=", 20),
    ("COC1=CC(=O)C(OC)=C(c2cccc(-c3ccccc3)c2)C1=O", "<", 10),
    ("CCCNC1=CC(=O)C(NCCC)=C(c2ccc(C)cc2)C1=O", "=", 67),
    ("COC1=CC(=O)C(OC)=C(c2ccccc2-c2ccccc2)C1=O", "<", 10),
    ("COC1=CC(=O)C(OC)=C(c2cc3ccccc3s2)C1=O", "=", 59),
    ("COC1=CC(=O)C(OC)=C(c2ccccc2)C1=O", "=", 31),
    ("CCCCc1ccc(C2=C(OC)C(=O)C(c3ccc(CCCC)cc3)=C(OC)C2=O)cc1", "=", 72),
    ("CCCNC1=C(c2ccccc2)C(=O)C(NCCC)=C(c2cccc3ccccc23)C1=O", "=", 76),
    ("COC1=CC(=O)C(OC)=C(c2cccc(C)c2)C1=O", "=", 24),
    ("COC1=CC(=O)C(OC)=C(c2ccccc2OC)C1=O", "=", 19),
    ("COC1=C(c2ccc3ccccc3c2)C(=O)C(OC)=C(c2cccc3ccccc23)C1=O", "=", 72),
    ("CCCNC1=CC(=O)C(NCCC)=C(c2ccccc2-c2ccccc2)C1=O", "=", 76),
    ("CCCCc1ccc(C2=C(OC)C(=O)C=C(OC)C2=O)cc1", "<", 10),
    ("COC1=CC(=O)C(OC)=C(c2ccc(OC)c(OC)c2)C1=O", ">", 100),
    ("CCCNC1=C(c2ccc3ccccc3c2)C(=O)C(NCCC)=C(c2cccc3ccccc23)C1=O", "=", 90),
]

###

Below are compounds with their GI50 as measured on SMA (spontaneous murine astrocytoma).
REPORTED PROPERTY: GI50 (µM)

# SMILES STRING, NUMERIC VALUE
rows = [
    ("COC1=CC(=O)C(OC)=C(c2ccccc2-c2ccccc2)C1=O", 20),
    ("COC1=CC(=O)C(OC)=C(c2cccc3ccccc23)C1=O", 20),
    ("COC1=C(c2ccccc2)C(=O)C(OC)=C(c2ccccc2)C1=O", 6.2),
    ("COC1=CC(=O)C(OC)=C(c2ccc(OC)c(OC)c2)C1=O", 3.9),
    ("COC1=CC(=O)C(OC)=C(c2ccc(C)cc2)C1=O", 33),
    ("COC1=CC(=O)C(OC)=C(c2ccc(-c3ccccc3)cc2)C1=O", 19),
    ("COC1=C(c2ccc3ccccc3c2)C(=O)C(OC)=C(c2cccc3ccccc23)C1=O", 11),
    ("COC1=C(c2cccc(-c3ccccc3)c2)C(=O)C(OC)=C(c2ccc3ccccc3c2)C1=O", 13),
    ("CCCNC1=C(c2ccc3ccccc3c2)C(=O)C(NCCC)=C(c2cccc3ccccc23)C1=O", 3.9),
]

###

# Tested on: panel of 11 cancer cell lines and one normal cell line
# METHOD NOTES: Cytotoxicity across the whole cell line panel (MTT)
# Format: cell-based
# ASSAY CONTEXT: average over the cell line panel; read-out: average GI50
REPORTED PROPERTY: GI50

# SMILES STRING, REPORTED PROPERTY, RESULT
measured = [
    ("COC1=CC(=O)C(OC)=C(c2ccc(-c3ccccc3)cc2)C1=O", "GI50", "10.2 µM"),
    ("CCCNC1=CC(=O)C(NCCC)=C(c2ccccc2-c2ccccc2)C1=O", "GI50", "2.5 µM"),
    ("CCCNC1=C(c2ccc3ccccc3c2)C(=O)C(NCCC)=C(c2cccc3ccccc23)C1=O", "GI50", "0.69 µM"),
    ("COC1=CC(=O)C(OC)=C(c2ccc(OC)c(OC)c2)C1=O", "GI50", "10.2 µM"),
]
